subject of test: Pim-2 (Homo sapiens (Human))
Sequence (Q9P1W9 whole entry): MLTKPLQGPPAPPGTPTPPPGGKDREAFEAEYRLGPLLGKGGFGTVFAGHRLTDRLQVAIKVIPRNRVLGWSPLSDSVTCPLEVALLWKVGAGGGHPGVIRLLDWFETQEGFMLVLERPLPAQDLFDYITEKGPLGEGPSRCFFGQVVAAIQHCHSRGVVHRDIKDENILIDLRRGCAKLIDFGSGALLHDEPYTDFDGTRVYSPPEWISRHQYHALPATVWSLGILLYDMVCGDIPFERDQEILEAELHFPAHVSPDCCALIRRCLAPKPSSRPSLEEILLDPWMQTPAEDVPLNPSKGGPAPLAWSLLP
protocol: KinaseProfiler off-target kinase profiling
Format: biochemical
experimental setup: 10 μM, ATP near Km
measured metric: Avg. POC (POC)

COCc1ccc2c(c1)C(NC(=O)Nc1c(C)c(-c3cnn(C)c3)nn1-c1ccccc1)COC2 (stereo not shown) [Example 32]
116.5
Cc1c(-c2ccc(=O)n(C)c2)nn(-c2ccccc2)c1NC(=O)NC1CN(CC(F)(F)F)Cc2ccccc21 (stereo not shown) [Example 26]
120.5
Cc1c(-c2cnn(C)c2)nn(-c2ccccc2)c1NC(=O)NC1CCOc2cc(F)ccc21 (stereo not shown) [Example 12]
118.5
Cc1c(-c2cnn(C)c2)nn(-c2ccccc2)c1NC(=O)N[C@H]1CCCc2ccccc21 [Example 2]
148

====

subject of test: UniProtKB P05771
Sequence (P05771 whole entry): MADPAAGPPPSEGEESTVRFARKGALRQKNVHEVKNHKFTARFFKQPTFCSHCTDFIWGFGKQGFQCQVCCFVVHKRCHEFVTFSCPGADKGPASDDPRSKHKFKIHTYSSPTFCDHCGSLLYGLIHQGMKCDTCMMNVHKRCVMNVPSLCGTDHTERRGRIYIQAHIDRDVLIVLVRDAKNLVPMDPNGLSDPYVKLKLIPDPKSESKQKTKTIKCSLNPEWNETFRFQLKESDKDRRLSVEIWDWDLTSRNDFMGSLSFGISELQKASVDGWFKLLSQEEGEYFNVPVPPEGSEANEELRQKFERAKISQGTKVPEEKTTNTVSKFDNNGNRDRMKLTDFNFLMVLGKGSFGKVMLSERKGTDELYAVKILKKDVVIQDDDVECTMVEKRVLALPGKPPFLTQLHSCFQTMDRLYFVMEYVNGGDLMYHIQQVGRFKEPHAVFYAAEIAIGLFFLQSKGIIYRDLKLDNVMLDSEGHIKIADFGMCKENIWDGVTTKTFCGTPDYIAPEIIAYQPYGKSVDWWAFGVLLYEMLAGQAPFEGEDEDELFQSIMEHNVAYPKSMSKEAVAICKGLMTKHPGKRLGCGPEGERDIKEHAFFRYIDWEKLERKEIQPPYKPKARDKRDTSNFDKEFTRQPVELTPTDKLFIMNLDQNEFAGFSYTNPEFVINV
protocol: KinaseProfiler off-target kinase profiling
Format: biochemical
experimental setup: 10 μM, ATP near Km
measured metric: Avg. POC (POC)

Cc1c(-c2ccc(=O)n(C)c2)nn(-c2ccccc2)c1NC(=O)NC1CN(CC(F)(F)F)Cc2ccccc21 (stereo not shown)
89
Cc1c(-c2cnn(C)c2)nn(-c2ccccc2)c1NC(=O)N[C@H]1CCCc2ccccc21
99
COCc1ccc2c(c1)C(NC(=O)Nc1c(C)c(-c3cnn(C)c3)nn1-c1ccccc1)COC2 (stereo not shown)
80
Cc1c(-c2cnn(C)c2)nn(-c2ccccc2)c1NC(=O)NC1CCOc2cc(F)ccc21 (stereo not shown)
93.5

====

subject of test: PDGFRbeta (Homo sapiens (Human))
Sequence (P09619 33-1106): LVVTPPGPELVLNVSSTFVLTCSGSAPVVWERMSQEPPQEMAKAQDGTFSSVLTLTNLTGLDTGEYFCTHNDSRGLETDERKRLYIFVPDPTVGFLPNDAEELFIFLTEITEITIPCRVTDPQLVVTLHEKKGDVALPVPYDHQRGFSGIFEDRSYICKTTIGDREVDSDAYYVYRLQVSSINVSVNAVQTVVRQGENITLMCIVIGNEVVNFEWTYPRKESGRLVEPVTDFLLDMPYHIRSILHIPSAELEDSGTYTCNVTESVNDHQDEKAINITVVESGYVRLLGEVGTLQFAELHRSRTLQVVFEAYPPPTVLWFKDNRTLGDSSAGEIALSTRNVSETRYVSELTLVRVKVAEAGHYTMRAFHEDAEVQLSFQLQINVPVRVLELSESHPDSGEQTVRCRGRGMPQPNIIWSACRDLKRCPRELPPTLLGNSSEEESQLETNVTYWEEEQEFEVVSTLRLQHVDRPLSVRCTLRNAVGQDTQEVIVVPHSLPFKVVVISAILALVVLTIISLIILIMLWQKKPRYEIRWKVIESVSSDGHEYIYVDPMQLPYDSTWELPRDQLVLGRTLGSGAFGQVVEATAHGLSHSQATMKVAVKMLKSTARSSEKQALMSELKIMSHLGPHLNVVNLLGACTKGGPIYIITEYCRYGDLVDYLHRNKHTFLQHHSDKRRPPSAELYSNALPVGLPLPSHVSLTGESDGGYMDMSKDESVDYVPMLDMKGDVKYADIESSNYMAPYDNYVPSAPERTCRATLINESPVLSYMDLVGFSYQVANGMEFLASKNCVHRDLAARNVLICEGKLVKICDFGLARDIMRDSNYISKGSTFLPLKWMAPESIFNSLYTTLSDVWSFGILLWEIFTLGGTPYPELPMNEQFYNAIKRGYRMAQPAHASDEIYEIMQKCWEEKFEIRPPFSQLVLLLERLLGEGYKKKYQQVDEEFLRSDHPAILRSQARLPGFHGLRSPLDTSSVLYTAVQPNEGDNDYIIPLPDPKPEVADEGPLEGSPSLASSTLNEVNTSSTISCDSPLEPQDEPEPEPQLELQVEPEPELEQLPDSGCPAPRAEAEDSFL
protocol: KinaseProfiler off-target kinase profiling
Format: biochemical
experimental setup: 10 μM, ATP near Km
measured metric: Avg. POC (POC)

Cc1c(-c2ccc(=O)n(C)c2)nn(-c2ccccc2)c1NC(=O)NC1CN(CC(F)(F)F)Cc2ccccc21 (stereo not shown) [Example 26]
122.5
Cc1c(-c2cnn(C)c2)nn(-c2ccccc2)c1NC(=O)NC1CCOc2cc(F)ccc21 (stereo not shown) [Example 12]
125.5
Cc1c(-c2cnn(C)c2)nn(-c2ccccc2)c1NC(=O)N[C@H]1CCCc2ccccc21 [Example 2]
149
COCc1ccc2c(c1)C(NC(=O)Nc1c(C)c(-c3cnn(C)c3)nn1-c1ccccc1)COC2 (stereo not shown) [Example 32]
131.5

====

subject of test: UniProtKB P78362
Sequence (P78362 whole entry): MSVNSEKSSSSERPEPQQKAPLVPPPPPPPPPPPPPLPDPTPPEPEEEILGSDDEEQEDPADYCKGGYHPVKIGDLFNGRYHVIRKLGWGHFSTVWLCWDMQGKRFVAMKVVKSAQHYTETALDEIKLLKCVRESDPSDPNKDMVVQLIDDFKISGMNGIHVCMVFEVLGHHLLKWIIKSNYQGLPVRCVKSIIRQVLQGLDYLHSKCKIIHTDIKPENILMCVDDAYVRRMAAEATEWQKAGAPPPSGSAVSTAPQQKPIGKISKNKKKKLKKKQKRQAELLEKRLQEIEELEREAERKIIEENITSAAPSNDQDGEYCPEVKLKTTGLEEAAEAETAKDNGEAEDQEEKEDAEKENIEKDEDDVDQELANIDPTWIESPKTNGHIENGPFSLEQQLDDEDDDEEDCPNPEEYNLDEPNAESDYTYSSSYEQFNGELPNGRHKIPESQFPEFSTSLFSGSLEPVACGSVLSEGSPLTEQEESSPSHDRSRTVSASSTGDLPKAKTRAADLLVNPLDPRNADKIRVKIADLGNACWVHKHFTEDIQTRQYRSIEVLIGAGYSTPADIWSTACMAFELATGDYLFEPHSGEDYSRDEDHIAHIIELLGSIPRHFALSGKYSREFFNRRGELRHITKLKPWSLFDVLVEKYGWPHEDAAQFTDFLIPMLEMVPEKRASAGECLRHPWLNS
protocol: KinaseProfiler off-target kinase profiling
Type: biochemical
experimental setup: 10 μM, ATP near Km
measured metric: Avg. POC (POC)

Cc1c(-c2ccc(=O)n(C)c2)nn(-c2ccccc2)c1NC(=O)NC1CN(CC(F)(F)F)Cc2ccccc21 (stereo not shown)
106
Cc1c(-c2cnn(C)c2)nn(-c2ccccc2)c1NC(=O)N[C@H]1CCCc2ccccc21
106
COCc1ccc2c(c1)C(NC(=O)Nc1c(C)c(-c3cnn(C)c3)nn1-c1ccccc1)COC2 (stereo not shown)
106.5
Cc1c(-c2cnn(C)c2)nn(-c2ccccc2)c1NC(=O)NC1CCOc2cc(F)ccc21 (stereo not shown)
101.5

====

subject of test: EphB1 (Homo sapiens (Human), UniProt P54762)
Sequence (P54762 18-984): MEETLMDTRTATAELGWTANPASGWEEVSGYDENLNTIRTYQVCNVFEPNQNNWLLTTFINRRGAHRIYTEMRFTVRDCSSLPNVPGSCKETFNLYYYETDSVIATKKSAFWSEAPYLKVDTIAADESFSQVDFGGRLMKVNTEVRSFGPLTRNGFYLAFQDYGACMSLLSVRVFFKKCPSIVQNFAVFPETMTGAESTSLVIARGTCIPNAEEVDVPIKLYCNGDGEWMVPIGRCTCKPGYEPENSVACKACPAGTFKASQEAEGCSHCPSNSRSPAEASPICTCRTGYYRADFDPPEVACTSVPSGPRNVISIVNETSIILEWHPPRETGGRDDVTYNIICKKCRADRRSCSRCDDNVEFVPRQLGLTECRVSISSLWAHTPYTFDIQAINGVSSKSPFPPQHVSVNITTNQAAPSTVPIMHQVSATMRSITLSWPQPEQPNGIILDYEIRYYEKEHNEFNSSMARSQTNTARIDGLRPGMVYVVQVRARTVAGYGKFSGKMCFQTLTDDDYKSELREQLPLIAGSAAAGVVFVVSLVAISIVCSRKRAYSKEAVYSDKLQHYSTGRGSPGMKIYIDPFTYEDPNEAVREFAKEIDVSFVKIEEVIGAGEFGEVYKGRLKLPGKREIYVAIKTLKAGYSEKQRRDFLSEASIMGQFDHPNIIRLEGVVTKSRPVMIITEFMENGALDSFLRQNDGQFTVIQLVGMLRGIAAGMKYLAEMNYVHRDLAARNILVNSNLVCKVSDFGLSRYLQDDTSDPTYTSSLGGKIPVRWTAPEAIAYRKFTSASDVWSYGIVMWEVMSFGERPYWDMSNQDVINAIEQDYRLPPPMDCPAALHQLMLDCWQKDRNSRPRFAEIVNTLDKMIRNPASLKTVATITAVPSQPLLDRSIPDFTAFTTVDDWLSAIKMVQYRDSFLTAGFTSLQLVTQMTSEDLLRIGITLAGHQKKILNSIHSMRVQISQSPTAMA
protocol: KinaseProfiler off-target kinase profiling
Format: biochemical
experimental setup: 10 μM, ATP near Km
measured metric: Avg. POC (POC)

COCc1ccc2c(c1)C(NC(=O)Nc1c(C)c(-c3cnn(C)c3)nn1-c1ccccc1)COC2 (stereo not shown) [Example 32]
145.5
Cc1c(-c2ccc(=O)n(C)c2)nn(-c2ccccc2)c1NC(=O)NC1CN(CC(F)(F)F)Cc2ccccc21 (stereo not shown) [Example 26]
116.5
Cc1c(-c2cnn(C)c2)nn(-c2ccccc2)c1NC(=O)N[C@H]1CCCc2ccccc21 [Example 2]
108.5
Cc1c(-c2cnn(C)c2)nn(-c2ccccc2)c1NC(=O)NC1CCOc2cc(F)ccc21 (stereo not shown) [Example 12]
114
